Hello, the source for this data is ChEMBL document CHEMBL2424549, in case you need it.

- assay-target: Bifunctional epoxide hydrolase 2 (Homo sapiens)
- Sequence (P34913 whole entry): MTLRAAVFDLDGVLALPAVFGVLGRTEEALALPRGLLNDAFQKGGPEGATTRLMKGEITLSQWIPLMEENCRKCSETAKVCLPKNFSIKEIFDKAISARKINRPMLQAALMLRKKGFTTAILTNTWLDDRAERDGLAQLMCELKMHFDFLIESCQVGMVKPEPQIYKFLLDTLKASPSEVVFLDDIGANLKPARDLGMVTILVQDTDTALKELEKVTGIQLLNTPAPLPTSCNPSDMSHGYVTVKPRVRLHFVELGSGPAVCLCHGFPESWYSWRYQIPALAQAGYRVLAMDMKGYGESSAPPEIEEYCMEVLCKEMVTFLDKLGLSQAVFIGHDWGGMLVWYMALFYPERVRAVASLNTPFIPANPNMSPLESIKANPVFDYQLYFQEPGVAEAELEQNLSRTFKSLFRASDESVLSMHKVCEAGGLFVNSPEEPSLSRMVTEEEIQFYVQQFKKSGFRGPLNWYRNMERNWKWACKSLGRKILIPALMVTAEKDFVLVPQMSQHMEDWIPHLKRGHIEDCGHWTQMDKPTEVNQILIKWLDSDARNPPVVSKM
- test: Inhibition of human recombinant soluble epoxide hydrolase using (3-phenyl-oxiranyl)-acetic acid cyano-(6-methoxy-naphtalen-2-yl)-methyl ester as substrate incubated for 15 mins prior to substrate addition by fluorescence assay
# pIC50 per entry
Bear in mind: pIC50 is minus log10 of a mol/L concentration; give just that figure.

smiles-record	pIC50
Cc1cc(C2CCN(C(=O)NC(C)C)CC2)n(-c2ccc(S(C)(=O)=O)cc2)n1	4.87

Lab book: pIC50 of `Cc1cc(C2CCN(C(=O)Nc3ccccc3)CC2)n(-c2ccc(S(N)(=O)=O)cc2)n1` noted as 4.78

Lab book: pIC50 of `Cc1cc(C2CCN(C(=O)NC3CCCCC3)CC2)n(-c2ccc(S(C)(=O)=O)cc2)n1` noted as 5.46

Lab book: pIC50 of `CCCCNC(=O)N1CCC(c2cc(C)nn2-c2ccc(S(C)(=O)=O)cc2)CC1` noted as 6.57

* * *

# inhibition per entry
- assay-target: Bifunctional epoxide hydrolase 2 (Homo sapiens) (UniProt P34913)
- Sequence (P34913 whole entry): as above
- test: Inhibition of human recombinant soluble epoxide hydrolase using (3-phenyl-oxiranyl)-acetic acid cyano-(6-methoxy-naphtalen-2-yl)-methyl ester as substrate at 100 uM incubated for 15 mins prior to substrate addition by fluorescence assay
# output: bare number, implied unit %

Check out these entries, answers already filled in.
smiles-record	parameter-measured	measured
Cc1ccc(NC(=O)N2CCC(c3cc(C)nn3-c3ccc(S(C)(=O)=O)cc3)CC2)cc1	inhibition	54
Cc1cc(C2CCN(C(=O)NC(C)C)CC2)n(-c2ccc(S(N)(=O)=O)cc2)n1	inhibition	105
Cc1cc(C2CCN(C(=O)Nc3ccccc3)CC2)n(-c2ccc(S(N)(=O)=O)cc2)n1	inhibition	92.7
Cc1ccc(NC(=O)N2CCC(c3cc(C)nn3-c3ccc(S(N)(=O)=O)cc3)CC2)cc1	inhibition	105
Cc1cc(C2CCN(C(=O)NCc3ccccc3)CC2)n(-c2ccc(S(C)(=O)=O)cc2)n1	inhibition	94.2

Please find the next molecule below.
Measured inhibition (Bifunctional epoxide hydrolase 2 (Homo sapiens) (UniProt P34913)), entry `Cc1cc(C2CCN(C(=O)c3ccc(Cl)cc3)CC2)n(-c2ccc(S(N)(=O)=O)cc2)n1` : 32.5

* * *

- assay-target: Bifunctional epoxide hydrolase 2 (Homo sapiens) (UniProt P34913)
- test: Inhibition of human recombinant soluble epoxide hydrolase using (3-phenyl-oxiranyl)-acetic acid cyano-(6-methoxy-naphtalen-2-yl)-methyl ester as substrate at 100 uM incubated for 15 mins prior to substrate addition by fluorescence assay
# inhibition per entry
# output: bare number, implied unit %

smiles-record	parameter-measured	scale-unit	measured
CCCNC(=O)N1CCC(c2cc(C)nn2-c2ccc(S(N)(=O)=O)cc2)CC1	inhibition	%	68.6
Cc1cc(C2CCN(C(=O)NCc3ccccc3)CC2)n(-c2ccc(S(N)(=O)=O)cc2)n1	inhibition	%	69.2
CCCCNC(=O)N1CCC(c2cc(C)nn2-c2ccc(S(C)(=O)=O)cc2)CC1	inhibition	%	99.5
Cc1ccc(C(=O)N2CCC(c3cc(C)nn3-c3ccc(S(N)(=O)=O)cc3)CC2)cc1	inhibition	%	0

Lab book: inhibition of `Cc1cc(C2CCN(C(=O)Nc3ccc(Cl)cc3)CC2)n(-c2ccc(S(C)(=O)=O)cc2)n1` noted as 54

Lab book: inhibition of `Cc1cc(C2CCN(C(=O)NCCc3ccccc3)CC2)n(-c2ccc(S(C)(=O)=O)cc2)n1` noted as 54

Lab book: inhibition of `Cc1cc(C2CCN(C(=O)Nc3ccccc3)CC2)n(-c2ccc(S(C)(=O)=O)cc2)n1` noted as 89.9

Lab book: inhibition of `Cc1cc(C2CCN(C(=O)Nc3ccccc3Cl)CC2)n(-c2ccc(S(C)(=O)=O)cc2)n1` noted as 54

Lab book: inhibition of `Cc1cc(C2CCN(C(=O)c3ccccc3)CC2)n(-c2ccc(S(N)(=O)=O)cc2)n1` noted as 57.2

Lab book: inhibition of `Cc1cc(C2CCN(C(=O)Nc3ccccc3Cl)CC2)n(-c2ccc(S(N)(=O)=O)cc2)n1` noted as 54

Lab book: inhibition of `CCNC(=O)N1CCC(c2cc(C)nn2-c2ccc(S(C)(=O)=O)cc2)CC1` noted as 54
